# protocol-details: Metabolic stability in human liver microsomes
# Type: in vitro ADME
# measurement-setup: HLMs, compound at 5 μM, read-out: half-life time (t1/2)
property-name: half-life at 5 μM (h)
The figure you give is taken to be in h; do not add the unit.

Exercise: // lookup half-life at 5 μM for "CN(C)CCn1cnc2ccc(NS(=O)(=O)c3ccc4c(Cl)cccc4c3)cc21"
Key: 1.29

----------
melting point values, listed per item

Some solved entries appear below for comparison.
CN(C)CCn1cnc2ccc(NS(=O)(=O)c3ccccc3)cc21 [Compound 4]; 138 to 140 °C
Cc1c(S(=O)(=O)Nc2ccc3c(c2)ncn3CCN(C)C)sc2ccc(Cl)cc12 [Compound 9]; 90 to 93 °C

For the next question, use this compound.
Exercise: // lookup melting point for CN(C)CCn1cnc2c(NS(=O)(=O)c3ccc4c(Cl)cccc4c3)cccc21 [Compound 5]
Key: 76 to 78 °C

Data origin: paper PMC5259792
